Biological target: T1, biotinylated recombinant his-tagged MrkA, mixture of monomeric and oligomeric MrkA (Klebsiella pneumoniae, UniProt P12267 23-202, biotin-labeled (Pierce kit; sites not stated))
T1 construct: also called biotinylated-MrkA; a mixture of monomeric and multimeric MrkA; not shown: his tag
T1 chain: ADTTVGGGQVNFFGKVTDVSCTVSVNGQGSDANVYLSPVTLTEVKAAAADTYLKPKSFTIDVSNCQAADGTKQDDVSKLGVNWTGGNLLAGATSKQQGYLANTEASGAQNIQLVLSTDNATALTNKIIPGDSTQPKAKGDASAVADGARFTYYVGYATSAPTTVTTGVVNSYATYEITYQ
Assay: BLI (Octet), biotinylated MrkA on streptavidin sensors, IgG in solution, 1:1 fit
readout.label: koff (s⁻¹)
# unit: s⁻¹ | format: bare number

koff for anti-MrkA clone 6 (IgG1) (antibody, V domains shown, also called St4_C6; IgG clone 6) VH: QVQLVQSGAEVRKPGASVTLSCRTSGYTFTSYAVHWVRQAPGQGLEWMGGVNGGNGNTRFSQKFQDRLMIVRDRSANTASMELRSLTSEDTAVYYCARADDCSGVGCHPWFDPWGQGTLVTVSS VL: SVILTQPPSVSVSPGQTANITCSGDKLGDKYTSWYLQKPGQSPVLLIFQDTKRPSDIPERFSGSNSGNTATLTISGTQAVDEADYYCQAWDSDSGTATFGGGTKLTVL is 0.0002

koff for anti-MrkA clone 5 (IgG1) (antibody, V domains shown, also called St3_C5; IgG clone 5) VH: QVQLVQSGAEVKKPGASLKVSCKASGYTFTAYYMHWVRQAPGHGLEWMGWINPSSGGTNSAQKFQGRVTMTRDTSINTAYMELSRLTSDDTAVYYCARGTIGAAGNYWGQGTLVTVSS VL: QSVLTQPPSASGTPGQRVTISCSGSRPNIGGNTVNWYQQLPGAAPKLLIYSNSQRPSGVPDRFSGSKYGTSASLAISGLQSDDEADYYCAAWDDSLTGPVFGGGTKLTIL is 9.2e-05

koff for anti-MrkA clone 1 (IgG1) (antibody, V domains shown, also called St1_C1; IgG clone 1) VH: QVQLVQSGAEVRKPGASVTVFCRTSGYIFTSYAVHWVRQAPGQGLEWMGGINGGNGNTRISQRFQDRLMITRDRSANTASMELRSLTSEDTAIYYCARADDCSGVGCHPWFDPWGRGTLVTVSS VL: QSVLTQPPSVSVSPGHTASITCSGDKLGDKYVSWYQQKSGQSPVLVMYKDTKRPSGIPERFSGSNSGNTATLAISGTQAVDEADYFCQAWDRSIMIFGGGTKVTVL is 0.00017

koff for anti-MrkA clone 4 (IgG1) (antibody, V domains shown, also called St2_C4; IgG clone 4) VH: QLQLQESGPGLVKPSGTLSLTCAVSGDSIDNANWWSWVRQTPGKGLEWIGEIYHSGTTYYNPSLKSRVTISIDNSKNQFSLALTSVTAADTAVYYCARDRDITSRGTFDVWGRGTMVTVSS VL: DIQMTQSPSTLSASIGDRVTITCRASEGIYHWLAWYQQKPGKAPKLLIYKASSLASGAPSRFSGSGSGTDFTLTISSLQPDDFATYYCQQYSNYPLTFGGGTKLEIK is 0.000146
